Documented growth across a set of molecules
System: HS 578T breast
Assay: NCI-60 one-dose screen, 48 h (100 = growth as untreated, 0 = no growth, -100 = all killed)
Conditions: 10 µM unless noted
The panel holds about 83,000 compounds, 20% with a hit somewhere; the sample as a whole holds those more often.
measured_parameter: growth (%)

In [3]: df
Out[3]:
                              smiles_record  measured_parameter  data_value
0  [2H]c1cc2c(c([2H])c1F)/C(=C/c1[nH]c(C)c(C(=O)NCCN(CC)CC)c1C)C(=O)N2              growth        44.9
1  Cc1nccc2c3ccc(OCc4cn(-c5ccccc5)nn4)cc3n(CCCc3ccccc3)c12              growth        65.5
2  O=C(Nc1nc(-c2ccccc2)cs1)c1cc(-c2ccc(Br)cc2)nc2ccccc12              growth        62.1
3  COc1ccc(C(=O)c2cc(F)c(F)c(OC)c2F)cc1OC(=O)CCl              growth        65.4
4            Cc1cnc(SCc2ccc(Cl)cc2)[nH]c1=S              growth         112
5  Cc1cccc(NC(=O)c2sc3nc4c(cc3c2N)CN(Cc2ccccc2)CC4)c1C              growth        30.8
6  Nc1cc(N)c(S(=O)(=O)O)cc1N=Nc1cc([N+](=O)[O-])ccc1O              growth         103
7       O=C(Nc1cc(=O)[nH]c(=O)[nH]1)C(Cl)Cl              growth        95.4
8  CCCn1c2cc(OCc3cn(-c4ccc(Cl)cc4)nn3)ccc2c2ccnc(C)c21              growth          75
9  COc1ccc2nc(-c3ccc(OC)c(OC)c3)cc(-c3nnc(SCC(=O)Nc4ccc(C(C)=O)cc4)o3)c2c1              growth        97.3

====

Tested on: UACC-257 melanoma
Assay: NCI-60 one-dose screen, 48 h (100 = growth as untreated, 0 = no growth, -100 = all killed)
Settings: 10 µM unless noted
Compounds without any hit were thinned out: in the full panel of roughly 83,000, 20% have a hit.
measured_parameter: growth (%)

compound	measured_parameter	data_value
CCOC(=O)C1=C(C)n2nc(CC#N)c(C#N)c2NC1c1ccc(CC)cc1 (stereo not drawn)	growth	111
CCOC(=O)c1c(-c2ccc(O)cc2)c(C#N)c2c(C#N)c(N)nn2c1N	growth	93
C=C(C)[C@@H]1CC[C@]2(C(=O)OCCOCCOCC[P+](c3ccccc3)(c3ccccc3)c3ccccc3)CC[C@]3(C)[C@H](CC[C@@H]4[C@@]5(C)CC[C@H](OC(=O)C(Cl)Cl)C(C)(C)[C@@H]5CC[C@]43C)[C@@H]12	growth	-27.9
COc1ccc2oc(=O)cc(-c3c(C#N)c(N)n4nc(N)c(C#N)c4c3C#N)c2c1	growth	107
Cc1nc2sc(C(=O)Nc3cccc4ccccc34)c(N)c2cc1C(C)O (stereo not drawn)	growth	64
CC(=O)c1ccc(NC(=O)CSc2nnc(-c3cc(-c4ccc(C)cc4)nc4ccccc34)o2)cc1	growth	101
CCC1S/C(=N\N=C(/C)c2ccc[nH]2)N(c2ccccc2)C1=O (stereo not drawn)	growth	104
COCCOCCOCc1n(Cc2ccc3ccccc3c2)c2ccccc2[n+]1Cc1ccc2ccccc2c1	growth	-13.1
